# TARGET_OF_ASSAY: canine TRPM8 (Canis lupus familiaris, UniProt Q1A7N1)
# Construct: expressed in transfected cells
# Sequence (Q1A7N1 1-1104): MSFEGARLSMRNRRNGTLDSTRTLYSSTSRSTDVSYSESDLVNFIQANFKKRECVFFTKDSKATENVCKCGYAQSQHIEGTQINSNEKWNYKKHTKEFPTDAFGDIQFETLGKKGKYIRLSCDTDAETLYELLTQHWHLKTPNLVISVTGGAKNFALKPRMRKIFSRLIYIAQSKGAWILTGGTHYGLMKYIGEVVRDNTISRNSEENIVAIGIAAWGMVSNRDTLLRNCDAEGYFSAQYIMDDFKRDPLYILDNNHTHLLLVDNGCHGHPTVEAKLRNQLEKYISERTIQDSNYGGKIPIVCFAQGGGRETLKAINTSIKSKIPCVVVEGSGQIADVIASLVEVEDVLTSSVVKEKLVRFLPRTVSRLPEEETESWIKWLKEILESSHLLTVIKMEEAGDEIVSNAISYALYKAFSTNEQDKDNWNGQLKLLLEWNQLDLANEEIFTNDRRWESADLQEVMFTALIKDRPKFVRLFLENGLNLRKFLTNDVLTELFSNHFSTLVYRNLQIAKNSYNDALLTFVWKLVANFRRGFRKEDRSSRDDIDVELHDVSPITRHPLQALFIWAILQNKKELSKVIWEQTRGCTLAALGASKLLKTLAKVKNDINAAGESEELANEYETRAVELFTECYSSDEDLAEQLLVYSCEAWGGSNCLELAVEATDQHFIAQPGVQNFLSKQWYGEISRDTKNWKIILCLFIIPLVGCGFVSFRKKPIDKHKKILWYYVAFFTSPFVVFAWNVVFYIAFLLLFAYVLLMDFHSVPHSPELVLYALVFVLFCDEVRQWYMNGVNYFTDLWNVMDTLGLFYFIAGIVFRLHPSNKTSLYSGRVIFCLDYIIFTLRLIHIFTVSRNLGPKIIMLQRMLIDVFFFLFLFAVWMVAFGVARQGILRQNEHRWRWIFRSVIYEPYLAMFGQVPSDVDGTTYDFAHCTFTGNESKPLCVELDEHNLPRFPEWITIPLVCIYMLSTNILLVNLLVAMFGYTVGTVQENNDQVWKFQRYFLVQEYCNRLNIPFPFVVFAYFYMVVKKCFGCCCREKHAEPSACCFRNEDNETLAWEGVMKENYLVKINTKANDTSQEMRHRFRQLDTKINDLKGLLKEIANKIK
# EXPERIMENT: In vitro canine TRPM8 functional assay (Ca2+-sensitive dye, FLIPR/FDSS, icilin activation)
# Type: cell-based
# MEASUREMENT_CONTEXT: 0.5 μM compound; HEK293 cells expressing canine TRPM8, icilin activation
METRIC_NAME: % I (0.5 μM) (%)
Numbers only, in %.

Take a look at these entries with their results.
COMPOUND: CCOP(=O)(OCC)C(Cc1cccc(Cl)c1F)c1sc2ccccc2c1Cl (stereo not shown)
% I (0.5 μM), %: 103

COMPOUND: CCOP(=O)(OCC)C(Cc1ccc(SC)cc1)c1sc2ccccc2c1Br (racemic)
% I (0.5 μM), %: 103

COMPOUND: CCOP(=O)(OCC)C(Cc1ccccc1O)c1sc2ccccc2c1Br (stereo not shown)
% I (0.5 μM), %: 104

Next:
So what's the measured % I (0.5 μM) for this one? CC(=O)OCCOP(=O)(OCCOC(C)=O)C(Cc1ccc(F)c(F)c1)c1sc2ccccc2c1Br (racemic) 100
